- Test system: plasma protein
- RUN DESCRIPTION: Determination of plasma protein binding (rapid equilibrium dialysis)
- Type: in vitro ADME
- CONDITION SET: 4 hours at 37° C.
MEASURED METRIC: Exposure (% rPPB), bound drug fraction to the plasma protein (%)

The cases that follow already have their Exposure (% rPPB), bound drug fraction to the plasma protein on record.
C[C@@H]1c2nnc(-c3csc(C(F)(F)F)n3)n2CCN1C(=O)c1ccc(F)c(Cl)c1 [Compound 16]	82
Cc1ccc(-c2nnc3n2CCN(C(=O)c2ccc(F)c(F)c2)[C@@H]3C)o1 [Compound 5]	27
C[C@@H]1c2nnc(-c3csc(C(F)(F)F)n3)n2CCN1C(=O)c1ccc(F)c(F)c1F [Compound 14]	69
Cc1ccc(-c2nnc3n2CCN(C(=O)c2cc(F)c(F)c(F)c2F)[C@@H]3C)o1 [Compound 4]	30
Cc1ccc(-c2nnc3n2CCN(C(=O)c2ccc(Cl)c(Cl)c2)[C@@H]3C)o1 [Compound 11]	76
Cc1ccc(-c2nnc3n2CCN(C(=O)c2ccc(Cl)cc2)[C@@H]3C)o1 [Compound 10]	56

I. C[C@@H]1c2nnc(-c3csc(C(F)(F)F)n3)n2CCN1C(=O)c1ccc(F)cc1 [Compound 3]
II. C[C@@H]1c2nnc(-c3csc(C(F)(F)F)n3)n2CCN1C(=O)c1ccc(Cl)c(F)c1 [Compound 17]
For this pair, I and II , which shows a numerically higher Exposure (% rPPB), bound drug fraction to the plasma protein? API: response body contains the label of the selected item.
II
(II: 84%, I: 50%)

---

- TESTED TARGET: human NK-3 receptor (Homo sapiens (Human))
- RUN DESCRIPTION: 3H-SB222200 binding competition assay with human NK-3 receptor
- CONDITION SET: CHO cell membranes; 5 nM 3H-SB222200; Table 2; read-out: Competitive binding assay with human NK-3 receptor hNK-3 (Ki)
MEASURED METRIC: Ki (nM)

C[C@@H]1c2nnc(-c3csc(C(F)(F)F)n3)n2CCN1C(=O)c1cc(F)c(F)c(F)c1F	29
C[C@@H]1c2nnc(-c3csc(C(F)(F)F)n3)n2CCN1C(=O)c1ccc(F)cc1	22

I. Cc1ccc(-c2nnc3n2CCN(C(=O)c2ccc(Cl)c(Cl)c2)[C@@H]3C)o1
II. C[C@@H]1c2nnc(-c3csc(C(F)(F)F)n3)n2CCN1C(=O)c1ccc(F)c(Cl)c1
Hi, I'm comparing two records. Which one has the lower Ki, I or II ? API: response body contains the label of the selected item.
II
(II: 14 nM, I: 27 nM)

---

- TESTED TARGET: human NK-3 receptor (Homo sapiens (Human), UniProt P29371)
- Sequence (P29371 whole entry): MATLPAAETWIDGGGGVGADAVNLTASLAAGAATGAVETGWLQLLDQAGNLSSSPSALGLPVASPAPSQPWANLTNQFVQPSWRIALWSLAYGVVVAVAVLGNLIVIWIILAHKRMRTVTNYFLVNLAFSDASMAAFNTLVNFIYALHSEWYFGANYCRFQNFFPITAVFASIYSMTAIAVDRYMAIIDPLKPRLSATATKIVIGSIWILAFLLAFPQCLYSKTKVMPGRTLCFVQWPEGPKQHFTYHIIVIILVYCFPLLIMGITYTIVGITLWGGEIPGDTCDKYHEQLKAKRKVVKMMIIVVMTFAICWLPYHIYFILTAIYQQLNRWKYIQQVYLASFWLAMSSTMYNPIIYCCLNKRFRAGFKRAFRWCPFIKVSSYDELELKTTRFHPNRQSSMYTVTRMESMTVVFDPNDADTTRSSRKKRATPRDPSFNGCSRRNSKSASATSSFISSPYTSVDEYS
- RUN DESCRIPTION: 3H-SB222200 binding competition assay with human NK-3 receptor
- CONDITION SET: Table 3 (selectivity table); read-out: hNK-3 (Ki)
- Protocol: The affinity of compounds of the invention for the human NK-3 receptor was determined by measuring the ability of compounds of the invention to competitively and reversibly displace a well-characterized NK-3 radioligand in a concentration-dependent manner. ^3H-SB222200 Binding Competition Assay with Human NK-3 Receptor The ability of compounds of the invention to inhibit the binding of the NK-3 receptor selective antagonist ^3H-SB222200 was assessed by an in vitro radioligand binding assay. […]
MEASURED METRIC: Ki (nM)

Cc1ccc(-c2nnc3n2CCN(C(=O)c2ccc(F)c(Cl)c2)[C@@H]3C)o1 [Compound 8]	44

a. Cc1ccc(-c2nnc3n2CCN(C(=O)c2ccc(F)c(F)c2)[C@@H]3C)o1 [Compound 5]
b. Cc1nc(-c2nnc3n2CCN(C(=O)c2ccc(F)cc2)[C@@H]3C)cs1 [Compound 2]
For this pair, a and b , which shows a numerically higher Ki? API: response body contains the label of the selected item.
b
(b: 100 nM, a: 42 nM)

---

- TESTED TARGET: human NK-2 receptor (Homo sapiens (Human))
- Sequence (P21452 whole entry): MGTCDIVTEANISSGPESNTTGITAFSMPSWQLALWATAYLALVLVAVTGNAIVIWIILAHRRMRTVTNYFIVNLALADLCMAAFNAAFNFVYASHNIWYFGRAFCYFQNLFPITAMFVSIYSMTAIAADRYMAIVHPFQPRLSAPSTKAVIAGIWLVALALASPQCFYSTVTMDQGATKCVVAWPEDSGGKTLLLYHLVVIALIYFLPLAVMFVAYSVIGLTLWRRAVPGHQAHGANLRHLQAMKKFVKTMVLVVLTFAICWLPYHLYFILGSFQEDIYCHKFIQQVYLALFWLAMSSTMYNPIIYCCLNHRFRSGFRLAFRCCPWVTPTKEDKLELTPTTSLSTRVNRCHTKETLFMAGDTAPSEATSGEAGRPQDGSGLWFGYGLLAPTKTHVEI
MEASURED METRIC: Ki (µM)

The cases that follow already have their Ki on record.
C[C@@H]1c2nnc(-c3csc(C(F)(F)F)n3)n2CCN1C(=O)c1cc(F)c(F)c(F)c1F	4.7
C[C@@H]1c2nnc(-c3csc(C(F)(F)F)n3)n2CCN1C(=O)c1ccc(Cl)c(F)c1	5.2
C[C@@H]1c2nnc(-c3csc(C(F)(F)F)n3)n2CCN1C(=O)c1ccc(F)cc1	6.6

a. C[C@@H]1c2nnc(-c3csc(C(F)(F)F)n3)n2CCN1C(=O)c1ccc(F)c(F)c1F
b. C[C@@H]1c2nnc(-c3csc(C(F)(F)F)n3)n2CCN1C(=O)c1ccc(Cl)cc1
Hi, I'm comparing two records. Which one has the lower Ki, a or b ? API: response body contains the label of the selected item.
b
(b: 5.9 µM, a: 15 µM)

---

- Tested on: plasma protein
- RUN DESCRIPTION: Determination of plasma protein binding (rapid equilibrium dialysis)
- Format: in vitro ADME
- CONDITION SET: 4 hours at 37° C.
- Source text: Determination of Plasma Protein Binding The pharmacokinetic and pharmacodynamic properties of chemicals/drugs are largely a function of the reversible binding of chemicals to plasma or serum proteins. Generally, only the unbound or “free fraction” of a drug is available for diffusion or transport across cell membranes, and for interaction with a pharmacological/toxicological target. […]
MEASURED METRIC: Exposure (% rPPB), bound drug fraction to the plasma protein (%)

The cases that follow already have their Exposure (% rPPB), bound drug fraction to the plasma protein on record.
Cc1ccc(-c2nnc3n2CCN(C(=O)c2ccc(F)c(Cl)c2)[C@@H]3C)o1 [Compound 8]	47
Cc1ccc(-c2nnc3n2CCN(C(=O)c2ccc(F)c(F)c2F)[C@@H]3C)o1 [Compound 6]	37

1. Cc1ccc(-c2nnc3n2CCN(C(=O)c2cc(F)c(F)c(F)c2)[C@@H]3C)o1 [Compound 7]
2. C[C@@H]1c2nnc(-c3csc(C(F)(F)F)n3)n2CCN1C(=O)c1cc(F)c(F)c(F)c1 [Compound 15]
Hi, I'm comparing two records. Which one has the lower Exposure (% rPPB), bound drug fraction to the plasma protein, 1 or 2 ? API: response body contains the label of the selected item.
1
(1: 26%, 2: 60%)

---

- TESTED TARGET: human NK-3 receptor (Homo sapiens (Human), UniProt P29371)
- RUN DESCRIPTION: 3H-SB222200 binding competition assay with human NK-3 receptor
- CONDITION SET: CHO cell membranes; 5 nM 3H-SB222200; Table 2; read-out: Competitive binding assay with human NK-3 receptor hNK-3 (Ki)
MEASURED METRIC: Ki (nM)

The cases that follow already have their Ki on record.
Cc1ccc(-c2nnc3n2CCN(C(=O)c2ccc(F)c(F)c2)[C@@H]3C)o1	42
Cc1nc(-c2nnc3n2CCN(C(=O)c2ccc(F)cc2)[C@@H]3C)cs1	100
Cc1ccc(-c2nnc3n2CCN(C(=O)c2cc(F)c(F)c(F)c2F)[C@@H]3C)o1	52
C[C@@H]1c2nnc(-c3csc(C(F)(F)F)n3)n2CCN1C(=O)c1ccc(Cl)c(F)c1	22
Cc1ccc(-c2nnc3n2CCN(C(=O)c2ccc(F)c(Cl)c2)[C@@H]3C)o1	44
Cc1ccc(-c2nnc3n2CCN(C(=O)c2cc(F)c(F)c(F)c2)[C@@H]3C)o1	33
Cc1ccc(-c2nnc3n2CCN(C(=O)c2ccc(F)cc2)[C@@H]3C)o1	48
C[C@@H]1c2nnc(-c3csc(C(F)(F)F)n3)n2CCN1C(=O)c1cc(F)c(F)c(F)c1	13

a. Cc1ccc(-c2nnc3n2CCN(C(=O)c2ccc(F)c(F)c2F)[C@@H]3C)o1
b. C[C@@H]1c2nnc(-c3csc(C(F)(F)F)n3)n2CCN1C(=O)c1ccc(Cl)cc1
c. Cc1ccc(-c2nnc3n2CCN(C(=O)c2ccc(Cl)cc2)[C@@H]3C)o1
List these items ordered by Ki, big to small. Answer by writing out the labels in the requested order.
a, c, b
(a: 74 nM, c: 36 nM, b: 21 nM)

---

- TESTED TARGET: UniProt:Q12809
- Sequence (Q12809 whole entry): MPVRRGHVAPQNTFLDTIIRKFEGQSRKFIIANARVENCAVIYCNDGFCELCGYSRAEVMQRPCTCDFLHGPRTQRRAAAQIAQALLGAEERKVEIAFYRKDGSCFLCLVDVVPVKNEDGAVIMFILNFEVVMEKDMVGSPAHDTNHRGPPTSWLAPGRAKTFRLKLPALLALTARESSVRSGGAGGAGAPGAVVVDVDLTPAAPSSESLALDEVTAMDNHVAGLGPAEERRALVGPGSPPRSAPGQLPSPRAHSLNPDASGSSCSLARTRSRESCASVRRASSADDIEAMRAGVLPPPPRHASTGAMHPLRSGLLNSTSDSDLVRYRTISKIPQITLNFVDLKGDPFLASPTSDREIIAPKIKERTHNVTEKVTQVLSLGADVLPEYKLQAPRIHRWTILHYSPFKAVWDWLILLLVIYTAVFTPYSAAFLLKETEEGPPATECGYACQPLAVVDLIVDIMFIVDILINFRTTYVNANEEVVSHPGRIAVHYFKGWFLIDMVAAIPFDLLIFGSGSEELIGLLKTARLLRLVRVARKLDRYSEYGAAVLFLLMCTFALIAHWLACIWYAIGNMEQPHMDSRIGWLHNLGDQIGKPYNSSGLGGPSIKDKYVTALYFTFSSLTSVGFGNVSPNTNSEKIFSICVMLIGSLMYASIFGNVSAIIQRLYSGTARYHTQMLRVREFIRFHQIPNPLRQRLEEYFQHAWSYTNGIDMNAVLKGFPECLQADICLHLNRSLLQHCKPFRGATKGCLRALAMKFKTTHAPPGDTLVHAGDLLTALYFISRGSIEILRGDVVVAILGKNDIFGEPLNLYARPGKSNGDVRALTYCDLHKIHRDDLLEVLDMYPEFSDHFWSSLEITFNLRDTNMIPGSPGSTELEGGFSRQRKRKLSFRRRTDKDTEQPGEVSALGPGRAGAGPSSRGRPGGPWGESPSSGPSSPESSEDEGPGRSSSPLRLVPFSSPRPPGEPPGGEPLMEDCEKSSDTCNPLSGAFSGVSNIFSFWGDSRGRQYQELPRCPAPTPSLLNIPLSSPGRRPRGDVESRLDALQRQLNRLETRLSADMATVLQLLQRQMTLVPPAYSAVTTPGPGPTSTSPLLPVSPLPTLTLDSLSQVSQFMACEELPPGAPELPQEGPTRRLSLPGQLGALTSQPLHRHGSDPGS
- RUN DESCRIPTION: hERG inhibition assay (manual patch-clamp, HEK 293 cells)
- CONDITION SET: HEK 293 cells stably transfected with hERG, read-out: CardioSafety (hERG IC50)
MEASURED METRIC: IC50 (µM)
// units = µM; emit number, no label

C[C@@H]1c2nnc(-c3csc(C(F)(F)F)n3)n2CCN1C(=O)c1ccc(F)cc1	70

# IC50 of `Cc1ccc(-c2nnc3n2CCN(C(=O)c2ccc(F)cc2)[C@@H]3C)o1` = 31

---

- Tested on: plasma protein
- RUN DESCRIPTION: Determination of plasma protein binding (rapid equilibrium dialysis)
- Assay type: in vitro ADME
- CONDITION SET: 4 hours at 37° C.
MEASURED METRIC: Exposure (% rPPB), bound drug fraction to the plasma protein (%)

C[C@@H]1c2nnc(-c3csc(C(F)(F)F)n3)n2CCN1C(=O)c1cc(F)c(F)c(F)c1F	67

A. Cc1ccc(-c2nnc3n2CCN(C(=O)c2ccc(F)cc2)[C@@H]3C)o1
B. Cc1nc(-c2nnc3n2CCN(C(=O)c2ccc(F)cc2)[C@@H]3C)cs1
Hi, I'm comparing two records. Which one has the lower Exposure (% rPPB), bound drug fraction to the plasma protein, A or B ? API: response body contains the label of the selected item.
B
(B: 17%, A: 28%)

P. C[C@@H]1c2nnc(-c3csc(C(F)(F)F)n3)n2CCN1C(=O)c1ccc(F)c(F)c1
Q. C[C@@H]1c2nnc(-c3csc(C(F)(F)F)n3)n2CCN1C(=O)c1ccc(Cl)cc1
Hi, I'm comparing two records. Which one has the lower Exposure (% rPPB), bound drug fraction to the plasma protein, P or Q ? API: response body contains the label of the selected item.
P
(P: 51%, Q: 78%)
